Hey, just so you know, these numbers are from paper PMC5861220.

test: Pharmacokinetics of four lignans in rats after oral SC alcoholic extract; format: in vivo, rat; details: Sprague-Dawley, rat, plasma, po, 1.5 g/kg/day, Control (normal) rats, oral SC alcoholic extract 1.5 g/kg/day for 4 days, n = 5
Metric name: half-life (h)
Write the number in h without appending the unit.

Consider the reported half-life for these molecules:
[[record]]
smiles_record = "COc1cc2c(c(OC)c1OC)-c1c(cc3c(c1OC)OCO3)C[C@H](C)[C@H](C)C2"
metric_name = "half-life"
numeric_readout = 15.4

[[record]]
smiles_record = "COc1cc2c(c(OC)c1OC)-c1c(cc(OC)c(OC)c1OC)C[C@H](C)[C@@H](C)C2"
metric_name = "half-life"
numeric_readout = 11.5


Now, please, on to the next molecule.
Data request: Tell me its half-life given `COc1cc2c(c(OC)c1OC)-c1c(cc(OC)c(OC)c1OC)C[C@](C)(O)[C@@H](C)C2` as the entry.
Data returned: 10.1
